experiment: Half life in mouse at 10 mg/kg, po; type: ADME, organism-based; conditions: in vivo
outcome.measure: half-life (min)
# value in min; strip the unit string

In plain terms, COc1cc(C(=O)N[C@@H]2C[C@H]3CCC[C@@H](C2)N3Cc2nc3c(C(F)(F)F)cccc3s2)cc(OC)c1OC has a documented half-life of 169

* * *

target: C-X-C chemokine receptor type 6 (Homo sapiens, UniProt O00574); assay: Antagonist activity at Prolink-tagged human CXCR6 receptor assessed as inhibition of forskolin-induced cAMP accumulation by DiscoveRx cell based assay relative to control; assay type: functional; set-up: concentration or dose not given beside the values; settings: concentration not given here
Sequence (O00574 whole entry, looked up): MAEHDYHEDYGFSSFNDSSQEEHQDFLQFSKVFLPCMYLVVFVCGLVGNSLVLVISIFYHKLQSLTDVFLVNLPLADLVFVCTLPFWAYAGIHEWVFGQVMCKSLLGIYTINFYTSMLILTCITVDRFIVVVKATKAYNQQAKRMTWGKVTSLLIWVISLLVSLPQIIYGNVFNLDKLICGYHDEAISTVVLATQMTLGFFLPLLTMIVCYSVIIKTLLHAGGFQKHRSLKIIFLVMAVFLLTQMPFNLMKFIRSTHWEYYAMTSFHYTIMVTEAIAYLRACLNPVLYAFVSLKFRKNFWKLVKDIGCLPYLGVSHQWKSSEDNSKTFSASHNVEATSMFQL
outcome.measure: inhibition

In plain terms, O=C(CN1[C@@H]2CCC[C@H]1C[C@H](NC(=O)c1ccc3c(c1)OCO3)C2)Nc1ccc(Cl)cc1 has a documented inhibition of 84%

In plain terms, COc1cc(C(=O)N[C@@H]2C[C@H]3CCC[C@@H](C2)N3Cc2ccc(Cl)cc2)cc(OC)c1OC has a documented inhibition of 58%

In plain terms, COc1cc(C(=O)N[C@@H]2C[C@H]3CCC[C@@H](C2)N3CC(=O)Nc2ccccc2C)cc(OC)c1OC has a documented inhibition of 101%

In plain terms, COc1cc(C(=O)N[C@@H]2C[C@H]3CCC[C@@H](C2)N3Cc2nc3cc(Cl)ccc3s2)cc(OC)c1OC has a documented inhibition of 90%

In plain terms, COc1ccc(C(=O)N[C@@H]2C[C@H]3CCC[C@@H](C2)N3CC(=O)Nc2ccc(Cl)cc2)cc1 has a documented inhibition of 94%

In plain terms, COc1ccccc1NC(=O)CN1[C@@H]2CCC[C@H]1C[C@H](NC(=O)c1cc(OC)c(OC)c(OC)c1)C2 has a documented inhibition of 100%

In plain terms, COc1cc(C(=O)N[C@@H]2C[C@H]3CCC[C@@H](C2)N3CC(=O)Nc2ccccc2Cl)cc(OC)c1OC has a documented inhibition of 102%

* * *

assay: Clearance in mouse at 5 mg/kg, iv; format: ADME, organism-based; conditions: in vivo
outcome.measure: clearance (mL/min/kg)
# value in mL/min/kg; strip the unit string

In plain terms, COc1cc(C(=O)N[C@@H]2C[C@H]3CCC[C@@H](C2)N3Cc2nc3c(C(F)(F)F)cccc3s2)cc(OC)c1OC has a documented clearance of 28.4

* * *

test system: CXCR6 receptor (Prolink-tagged, human); assay: Safety index, ratio of LC50 for toxicity in human liver microsomes to IC50 for Prolink-tagged human CXCR6 receptor; conditions: read-out: Ratio LC50/IC50
outcome.measure: selectivity ratio

In plain terms, COc1cc(C(=O)N[C@@H]2C[C@H]3CCC[C@@H](C2)N3Cc2nc3c(C(F)(F)F)cccc3s2)cc(OC)c1OC has a documented selectivity ratio of > 40

* * *

assay: AUC in mouse at 10 mg/kg, po; type: ADME, organism-based; conditions: in vivo
outcome.measure: AUC
The answer consists of two parts: a number and, after it, its unit.

In plain terms, COc1cc(C(=O)N[C@@H]2C[C@H]3CCC[C@@H](C2)N3Cc2nc3c(C(F)(F)F)cccc3s2)cc(OC)c1OC has a documented AUC of 2050 ng·h/mL

* * *

assay: Drug metabolism in mouse liver microsomes incubated up to 1 hr; assay type: ADME, Microsome; settings: read-out: Drug metabolism
outcome.measure: metabolised at 1 h (%)
# value in %; strip the unit string

In plain terms, COc1cc(C(=O)N[C@@H]2C[C@H]3CCC[C@@H](C2)N3Cc2nc3c(C(F)(F)F)cccc3s2)cc(OC)c1OC has a documented metabolised at 1 h of 100

* * *

molecular target: C-X-C chemokine receptor type 6 (Homo sapiens); test: Antagonist activity at Prolink-tagged human CXCR6 receptor assessed as inhibition of forskolin-induced cAMP accumulation by DiscoveRx cell based assay; assay type: functional
Sequence (O00574 whole entry): as the sequence (O00574 whole entry, looked up) above
outcome.measure: pIC50
Scale: pIC50 equals -log10([C]), with [C] in mol/L.

Value sought: pIC50, system C-X-C chemokine receptor type 6 (Homo sapiens), item COc1cc(C(=O)N[C@@H]2C[C@H]3CCC[C@@H](C2)N3CC(=O)Nc2ccc(Cl)cc2Cl)cc(OC)c1OC . Result: 6.05

Value sought: pIC50, system C-X-C chemokine receptor type 6 (Homo sapiens), item COc1cc(C(=O)N[C@@H]2C[C@H]3CCC[C@@H](C2)N3Cc2nc3c(Cl)cccc3s2)cc(OC)c1OC . Result: 6.05

* * *

target: C-X-C chemokine receptor type 6 (Homo sapiens, UniProt O00574); experiment: Antagonist activity at Prolink-tagged human CXCR6 receptor assessed as inhibition of forskolin-induced cAMP accumulation by DiscoveRx cell based assay relative to control; assay type: functional; set-up: concentration or dose not given beside the values
Active and inactive are the calls of the source. No cut-off for these calls is given here.
outcome.measure: inhibition

These solved cases illustrate the format of a correct answer.
{"structure.notation": "COc1cc(C(=O)N[C@@H]2C[C@H]3CCC[C@@H](C2)N3CC(=O)Nc2ccc(C)cc2)cc(OC)c1OC", "outcome.measure": "inhibition", "observed.result": "inactive"}
{"structure.notation": "COc1cc(C(=O)N[C@@H]2C[C@H]3CCC[C@@H](C2)N3Cc2cn3ccccc3n2)cc(OC)c1OC", "outcome.measure": "inhibition", "observed.result": "inactive"}
{"structure.notation": "COc1cc(OC)cc(C(=O)N[C@@H]2C[C@H]3CCC[C@@H](C2)N3CC(=O)Nc2ccc(Cl)cc2)c1", "outcome.measure": "inhibition", "observed.result": "inactive"}
{"structure.notation": "COc1cc(C(=O)N[C@@H]2C[C@H]3CCC[C@@H](C2)N3CC(=O)Nc2c(Cl)cccc2Cl)cc(OC)c1OC", "outcome.measure": "inhibition", "observed.result": "inactive"}
{"structure.notation": "COc1cc(C(=O)N[C@@H]2C[C@H]3CCC[C@@H](C2)N3Cc2nc3ccccc3[nH]2)cc(OC)c1OC", "outcome.measure": "inhibition", "observed.result": "inactive"}

Pending compound:
In plain terms, COc1ccc(C(=O)N[C@@H]2C[C@H]3CCC[C@@H](C2)N3CC(=O)Nc2ccc(Cl)cc2)cc1OC has a documented inhibition of inactive

* * *

biological target: C-X-C chemokine receptor type 6 (Homo sapiens); assay: Antagonist activity at Prolink-tagged human CXCR6 receptor assessed as inhibition of forskolin-induced cAMP accumulation by DiscoveRx cell based assay relative to control; format: functional; parameters: concentration or dose not given beside the values
The source made the active and inactive calls. No cut-off for these calls is given here.
outcome.measure: inhibition

These solved cases illustrate the format of a correct answer.
{"structure.notation": "COc1cc(C(=O)N[C@@H]2C[C@H]3CCC[C@@H](C2)N3Cc2nc3c(OC)cccc3s2)cc(OC)c1OC", "inhibition": "inactive"}
{"structure.notation": "COc1cc(C(=O)N[C@@H]2C[C@H]3CCC[C@@H](C2)N3Cc2c[nH]c3ccccc23)cc(OC)c1OC", "inhibition": "inactive"}
{"structure.notation": "COc1cc(C(=O)N[C@@H]2C[C@H]3CCC[C@@H](C2)N3CC(=O)Nc2c(C)cccc2C)cc(OC)c1OC", "inhibition": "inactive"}
{"structure.notation": "COc1cc(C(=O)N[C@@H]2C[C@H]3CCC[C@@H](C2)N3CC(=O)c2nc3ccccc3s2)cc(OC)c1OC", "inhibition": "inactive"}

In plain terms, COc1cccc(CN2[C@@H]3CCC[C@H]2C[C@H](NC(=O)c2cc(OC)c(OC)c(OC)c2)C3)c1 has a documented inhibition of inactive

In plain terms, COc1ccccc1CN1[C@@H]2CCC[C@H]1C[C@H](NC(=O)c1cc(OC)c(OC)c(OC)c1)C2 has a documented inhibition of inactive

In plain terms, COc1ccc(NC(=O)CN2[C@@H]3CCC[C@H]2C[C@H](NC(=O)c2cc(OC)c(OC)c(OC)c2)C3)cc1 has a documented inhibition of inactive

* * *

test: Volume of distribution at steady state in mouse at 5 mg/kg, iv; assay type: ADME, organism-based; conditions: in vivo, read-out: Vdss
outcome.measure: Vd (L/kg)
# value in L/kg; strip the unit string

In plain terms, COc1cc(C(=O)N[C@@H]2C[C@H]3CCC[C@@H](C2)N3Cc2nc3c(C(F)(F)F)cccc3s2)cc(OC)c1OC has a documented Vd of 3.32

* * *

Exercise: state measured pIC50 for each of the compounds provided.
target: UniProt O00574; experiment: Antagonist activity at Prolink-tagged human CXCR6 receptor assessed as inhibition of forskolin-induced cAMP accumulation by DiscoveRx cell based assay; assay type: functional
pIC50: −log10 of the molar value.

In plain terms, COc1cc(C(=O)N[C@@H]2C[C@H]3CCC[C@@H](C2)N3CC(=O)c2nc3ccccc3s2)cc(OC)c1OC has a documented pIC50 of < 4.30

In plain terms, COc1cccc(CN2[C@@H]3CCC[C@H]2C[C@H](NC(=O)c2cc(OC)c(OC)c(OC)c2)C3)c1 has a documented pIC50 of < 4.30

In plain terms, COc1cc(C(=O)N[C@@H]2C[C@H]3CCC[C@@H](C2)N3Cc2cn3ccccc3n2)cc(OC)c1OC has a documented pIC50 of < 4.30

In plain terms, COc1cc(C(=O)N[C@@H]2C[C@H]3CC[C@@H](C2)N3CC(=O)Nc2ccccc2)cc(OC)c1OC has a documented pIC50 of < 4.40
